// Kd lookup, one value per entry
# MEASUREMENT_TARGET: T1, AFP158/HLA-A*02:01 complex (human)
# T1 construct: flowed over the chip in SPR; also called AFP158 pro
# PROCEDURE_TEXT: SPR, scFv captured, pMHC in flow;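 note: complex injected at several concentrations over crude scFv, association then running-buffer dissociation, KD estimated from kinetic on- and off-rate constants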
TEST_READOUT: Kd (nM)

BINDER	TEST_READOUT	OBSERVED_RESULT
LE32P (scFv, AS170036 VL1VH1 scFv mutein) scFv: QSALTQPRSVSGSPGQSVTISCAGTSSDVGSPNYVSWYQQHPGKAPKLMIYQVNKRASGVPDRFSGSKSGNTASLTISGLQAEDEADYYCASYRSSDHNIVFGGGTKLTVLGGGGSGGGGSGGGGSEVQLVESGGGLVQPGGSLRLSCAASGFTFSSYAMSWVRQAPGKGLEWVSTINSGTGSPYYADSVKGRFTISRDNSKNTLYLQMNSLRAEDTAVYYCAKNFFDGSWFLGPPAMDYWGQGTLVTVSSHHHHHH	Kd	1400
LE32Y (scFv, AS170036 VL1VH1 scFv mutein) scFv: QSALTQPRSVSGSPGQSVTISCAGTSSDVGSYNYVSWYQQHPGKAPKLMIYQVNKRASGVPDRFSGSKSGNTASLTISGLQAEDEADYYCASYRSSDHNIVFGGGTKLTVLGGGGSGGGGSGGGGSEVQLVESGGGLVQPGGSLRLSCAASGFTFSSYAMSWVRQAPGKGLEWVSTINSGTGSPYYADSVKGRFTISRDNSKNTLYLQMNSLRAEDTAVYYCAKNFFDGSWFLGPPAMDYWGQGTLVTVSSHHHHHH	Kd	430
LE32V (scFv, AS170036 VL1VH1 scFv mutein) scFv: QSALTQPRSVSGSPGQSVTISCAGTSSDVGSVNYVSWYQQHPGKAPKLMIYQVNKRASGVPDRFSGSKSGNTASLTISGLQAEDEADYYCASYRSSDHNIVFGGGTKLTVLGGGGSGGGGSGGGGSEVQLVESGGGLVQPGGSLRLSCAASGFTFSSYAMSWVRQAPGKGLEWVSTINSGTGSPYYADSVKGRFTISRDNSKNTLYLQMNSLRAEDTAVYYCAKNFFDGSWFLGPPAMDYWGQGTLVTVSSHHHHHH	Kd	930
